Test system: MS2 coat protein
Assay: apparent Kd, MS2 coat protein; higher = weaker binding; RNA-MaP array; FMN 200 µM where present
Conditions: ligand present: flavin mononucleotide; designed as: OFF switch for flavin mononucleotide
Values of apparent Kd greater than or equal to 30 nM map to label 1; values below map to label 0.

Worked set:
>>> answer_label("GCAGUAUCAGGAUAUACAUGAGGAUCACCCAUGUGACUCCAUAGGAAGCUAUGUGGAUGUAGAAGGGAUCACUG")
"label 1"
>>> answer_label("GGAUCGAAAGUGAGGAUAUGCUGGUCCUUGGAUCAGCAGAAGGCACAUGAGGAUCACCCAUGUGGUAACGGUCC")
"label 1"
>>> answer_label("GGUGCGUUUGUGAGGAUAUGCUGGUCCUUGGUUCAGCAGAAGGCACAUGAGGAUCACCCAUGUGGUGUCGUACC")
"label 0"
>>> answer_label("AAUAACAGAGGAUAUACUGUUUUAUGUGUUUGUUGUUUUGAACAUGAGGAUCACCCAUGUAGAAGGCUGAAUGA")
"label 0"
>>> answer_label("UUUCUUGGGCAAGGAUAUCCUGUGCGGUUCCGGCUCGUGUCUGUCACAUGAGGAUCACCCAUGUGGGAGAAGGUGCCUGCAGUC")
"label 0"
>>> answer_label("GCAUAUCAGGGAGGAUAUGACAUGAGGAUCACCCAUGUAAUUAUGGCUCUGUCAGAAGGCCCAUCAUCACUAUAGUGACGAGAA")
"label 1"
>>> answer_label("CCUGAGUCAGGAUAUUGUACCGGCCUGAAGCCAGGCCGGCCCAAGAAGGGACAUGAGGAUCACCCAUGUGAAAA")
"label 1"
>>> answer_label("GCCGGAGCAGGAUAUUCAAUAUCACACAUGAGGAUCACCCAUGUCCAGCGAAAGCUGGAGGGAGAAGGGCUCUGGC")
"label 0"
>>> answer_label("UUUUAGUAAGGAUAUGCGUAGAUCUACGAAAGUAGAUCUACGCAGAAGGUACAUGAGGAUCACCCAUGUAGAUU")
"label 0"
>>> answer_label("CUUUUGUGAGGAUAUUAGUAUUAAAUAAAUAAAAUUACUACUGAGAAGGCACAUGAGGAUCACCCAUGUUCCUC")
"label 1"

Query string: Does CGGGUCUGAGGAUAUCCAUCUUCAUACAUGAGGAUCACCCAUGUUCACCCUUGGGUUCCCGGAGAAGGCAGUUUUC have a reported apparent Kd of at least 30 nM?
Result string: label 1

Query string: Does GGAAAACAUGAGGAUCACCCAUGUGAGGAUAUCGAUGUCCAGAGGGAGGUGCGGGACUCGAGAAGGCACUUGGA have a reported apparent Kd of at least 30 nM?
Result string: label 1

Query string: Does GCACUGGAUGUAGGAUAUCAGGACGAUAAGUCCUGAGAAGGACAUGAGGAUCACCCAUGUAAAAACUUCCCAGUGCAUAAUAUA have a reported apparent Kd of at least 30 nM?
Result string: label 0

Query string: Does CGAACCAUGUAGAAGGCUGUCUUAAAAUAGGACAGAGGAUAUACAUGAGGAUCACCCAUGUACUCCUUUAAAAGGUUCGAAAUA have a reported apparent Kd of at least 30 nM?
Result string: label 0

Query string: Does CCUUAGUAAGGAUAUCAGCUUAUAGAGUUGGUAAUGAGAGCUGAGAAGGUACAUGAGGAUCACCCAUGUUAGUU have a reported apparent Kd of at least 30 nM?
Result string: label 1

---

Each item that follows carries a reported apparent Kd.
Test system: MS2 coat protein
Assay: apparent Kd, MS2 coat protein; higher = weaker binding; RNA-MaP array; FMN 200 µM where present
Conditions: designed as: ON switch for flavin mononucleotide; no ligand
Write the number in µM without appending the unit.

Query string: apparent Kd lookup needed for GUAGCUAUCGGAGGAUAUCCAUACCGGAAACGGACAUGAGGAUCACCCAUGUGGCGAAAGCCUUGGGAGAAGGCCGAUAGCUAC , thanks.
Result string: 0.00506

Query string: apparent Kd lookup needed for UUCAAAUUCGUAGGAUAUGUAUAUAAUUUCUACAUGAGGAUCACCCAUGUUACCAUUUUUUAGUGACAGAAGGACGUAAUCUAA , thanks.
Result string: 0.211

Query string: apparent Kd lookup needed for GGUUACAUCGGAGGAUAUCAUGUAAAUACAUGAGGAUCACCCAUGUCGAUGGAGACAUCGGAGAUUGAGAAGGCCGAUGUACCG , thanks.
Result string: 0.17

Query string: apparent Kd lookup needed for CGCGGUACUUAGGUACCACACAUGAGGAUCACCCAUGUAUCACAGGAUAUGCAUGAUAUAUUCAGGCAGAAGGGUGAUCUUACC , thanks.
Result string: 0.0378

---

Tested on: MS2 coat protein
Assay: apparent Kd, MS2 coat protein; higher = weaker binding; RNA-MaP array
Settings: ligand present: flavin mononucleotide; designed as: ON switch for flavin mononucleotide
Each item that follows carries a reported apparent Kd.
Write the number in nM without appending the unit.

Example entries begin here.
>>> test_value("AGAUCGCAAUAAGGAUAUGCACCUAAGACUCAAAGAACUCUUGACAUGAGGAUCACCCAUGUAACGCAGAAGGUAUAUGACUCA")
15.1
>>> test_value("ACUGUACUGGGAGGAUAUGGAGAGUUACCGUAAAUAAUCUACUAGACAUGAGGAUCACCCAUGUUCCAGAAGGCCCCAUGGACC")
10.4
>>> test_value("AAUUGUCGAGCAGGAUAUAGCUGACAGGAUAUUCAACUAACGACAUGAGGAUCACCCAUGUGUGGCUAGAAGGGCUUCAAGGCA")
11.5

Query string: apparent Kd lookup needed for UCAAAAUGAUAGAAGGAGGCAAUACUCGCACCUAACAUGAGGAUCACCCAUGUCUGCAGGUUGACCUAGGAUAUAUGCAGUGGA , thanks.
Result string: 9.35

---

Test system: MS2 coat protein
Experiment: apparent Kd, MS2 coat protein; higher = weaker binding; RNA-MaP array; FMN 200 µM where present
Details: ligand present: flavin mononucleotide; designed as: OFF switch for flavin mononucleotide
Each item that follows carries a reported apparent Kd.
Write the number in nM without appending the unit.

Example entries begin here.
>>> test_value("CGGACGUCAGGAUAUCUGAUGUCUAACUUCGGUUAGACAUCAGAGAAGGGACAUGAGGAUCACCCAUGUCCGAG")
16.9
>>> test_value("CCGUUACAUGAGGAUCACCCAUGUGAGGAUAUCGGUGUGACUGGCAGCGUGCGGGACUCGAGAAGGCACUGGGC")
87.9
>>> test_value("GGACAUGAGGAUCACCCAUGUCGAACAUGAGGAUCACCCAUGUAGGAUAUGCUACUCAAAGAGUAGCAGAAGGACAUGUGCCUU")
51.2

Then there is this sequence:
Query string: Notebook entry, MS2 coat protein assay: apparent Kd of AAGUCGUGAGGAUAUACAUGGAUAUACAUUUAUGUAGAACUACAUGAGGAUCACCCAUGUAGAAGGCACGAAUA = ?
Result string: 147

---

System: MS2 coat protein
Experiment: apparent Kd, MS2 coat protein; higher = weaker binding; RNA-MaP array
Conditions: designed as: ON switch for flavin mononucleotide; no ligand
Values of apparent Kd greater than or equal to 30 nM map to satisfied; values below map to not satisfied.

>>> answer_label("AGCAAUACAUAAGGAUAUGACAUCCAAGAGGAAUCAGAAGGUAUGCAGGCGACAUGAGGAUCACCCAUGUAAUCAUGAGGCAAU")
"not satisfied"
>>> answer_label("UUCUAUGUGACAGGAUAUAGACUCCACCAGUUUCUAGAAGGGUCACAGACGGAUCUUUAUUUGUCACAUGAGGAUCACCCAUGU")
"not satisfied"
>>> answer_label("UCAAAAUGAUAGAAGGAGGCAAUACUCGCACCUAACAUGAGGAUCACCCAUGUCUGCAGGUUGACCUAGGAUAUAUGCAGUGGA")
"not satisfied"
>>> answer_label("CGGAAACAUGAGGAUCACCCAUGUGUAGAAAAGACAGGAUAUGACAAGGGCUUGAAGUGCUCAGAAGGGUCUGGAC")
"not satisfied"
>>> answer_label("CACUGACAACGAGGAUAUGGUCGAGCCAGACAUGAGGAUCACCCAUGUAUCGAAAGCAAUAAACUCCAGAAGGCGUAACAGUUG")
"not satisfied"
>>> answer_label("GUGCCACAUGAGGAUCACCCAUGUUUGGCAAGCAAAGGAUAUGGAAUGAUGGCUCGCAGCCCAGAAGGUUGUUGUG")
"not satisfied"

Query string: Does GUUUUCAACUUGUAGGAUAUUUCUCACGAGACAUGAGGAUCACCCAUGUAGUGAACCAGGGAUCGAAAGAAGGACAUCAUGACGGU have a reported apparent Kd of at least 30 nM?
Result string: satisfied

Query string: Does AGUUUUCCUGAGAAGGUGGAGGUCUUUCAUUGCCAAGGAUAUCAGACAACAAUGUAGCCCAAACAUGAGGAUCACCCAUGUCUC have a reported apparent Kd of at least 30 nM?
Result string: satisfied

Query string: Does CCAGGACAUGAGGAUCACCCAUGUCAACAUCAAAUAAGCGCGUAGGAUAUCAAUACUGAAAGCUUUGAGAAGGACGAGAGGGUA have a reported apparent Kd of at least 30 nM?
Result string: not satisfied

Query string: Does CGGUGAUAUGAAGGAUAUGCACAUGAGGAUCACCCAUGUAACCACUAGAACAAAACGUAGUAACCGCAGAAGGUCAGCAGUAGU have a reported apparent Kd of at least 30 nM?
Result string: not satisfied

Query string: Does AGAUCGCAAUAAGGAUAUGCACCUAAGACUCAAAGAACUCUUGACAUGAGGAUCACCCAUGUAACGCAGAAGGUAUAUGACUCA have a reported apparent Kd of at least 30 nM?
Result string: not satisfied

Query string: Does CGGCCACAUGAGGAUCACCCAUGUAGUUCGUCUAAAGGAUAUCCAGGUGGGUGACUCCAAGGAGAAGGUUAGGACG have a reported apparent Kd of at least 30 nM?
Result string: satisfied

Query string: Does AAAUUAACGAAGAAGGCCUGACGACAUGACUACAUGAGGAUCACCCAUGUUGCAGCACAAUAUAAGGAGGAUAUUCGACAAGCU have a reported apparent Kd of at least 30 nM?
Result string: not satisfied

Query string: Does CGAGGACAUGAGGAUCACCCAUGUGACCGUGCCAAAGGAUAUCACAGGAAAUAAUACAGUUGAGAAGGUUGAUCGG have a reported apparent Kd of at least 30 nM?
Result string: satisfied

Query string: Does ACUGUACUGGGAGGAUAUGGAGAGUUACCGUAAAUAAUCUACUAGACAUGAGGAUCACCCAUGUUCCAGAAGGCCCCAUGGACC have a reported apparent Kd of at least 30 nM?
Result string: not satisfied

Query string: Does AAAAUACAUGAGGAUCACCCAUGUCGCAAAUGCAUAGGAUAUGAUGAUGCUAAACACGCAUCAGAAGGAUGUAGAA have a reported apparent Kd of at least 30 nM?
Result string: not satisfied

Query string: Does GAAUAAAAUAUAAUAAGAAAACAUGAGGAUCACCCAUGUACAAGAAGGGAGAAACUUAACAUAACUCAGGAUAUUGUUAUAUCA have a reported apparent Kd of at least 30 nM?
Result string: not satisfied

Query string: Does GUAGAACCGCAGAAGGCAUUGAUUCGAGAGCGAUGAGGAUAUGCUCGUCGACAUGAGGAUCACCCAUGUUUACGAUUGAGAUAU have a reported apparent Kd of at least 30 nM?
Result string: not satisfied

Query string: Does CUCGAAUUAUCAGGAUAUCCACAAUUCGAAGAAGGAGAAGGGAUGGCAGGGCUAACAUGGAACAUGAGGAUCACCCAUGUGCAA have a reported apparent Kd of at least 30 nM?
Result string: not satisfied

Query string: Does GGUCUACAUGAGGAUCACCCAUGUGAGUUCACGGCAGGAUAUGGGUGCCUUUUUAGGCUACCAGAAGGGCCCUCUG have a reported apparent Kd of at least 30 nM?
Result string: satisfied

Query string: Does AGACUCCUAGCAGGAUAUGUUCAAGGAACAAAGAGAACAUGAGGAUCACCCAUGUACACAUAUGAACAGAAGGGCUGAAGAAAA have a reported apparent Kd of at least 30 nM?
Result string: not satisfied

Query string: Does CCGGCAACGUAAGGAUAUGAUUCGCGUCUUGACAUGAGGAUCACCCAUGUAACUGUCGAAAUGGCUCAGAAGGUACCAGUGCCC have a reported apparent Kd of at least 30 nM?
Result string: not satisfied

Query string: Does AACAUACAUGAGGAUCACCCAUGUCAAGAGAUGAAAGGAUAUAACUCUAUCAGGGUAAAGUAAGAAGGUUCGACUA have a reported apparent Kd of at least 30 nM?
Result string: not satisfied

Query string: Does CUGUACCGAAUAGGAUAUGAAAAGAAGGUAAAUUCAGAAGGAUUCAAUUAAUUUACAUGAGGAUCACCCAUGUCUAAGCAAACA have a reported apparent Kd of at least 30 nM?
Result string: not satisfied

Query string: Does UACAAAUAUCAUUACAUGAGGAUCACCCAUGUGGGACGUCGUAGAAGGGAGAUUCAAAUACAAGCUCAGGAUAUACAACUUCUG have a reported apparent Kd of at least 30 nM?
Result string: satisfied

Query string: Does UCCCAUAUAGUAGGAUAUCUGCUACAUGAGGAUCACCCAUGUCAUAUUUUUUACCAGUCUUAGAUAGAGAAGGACUGUGGACCU have a reported apparent Kd of at least 30 nM?
Result string: satisfied

Query string: Does GUCAGGCAACAGAAGGGAGGAUAUAACCGACAUGAGGAUCACCCAUGUGUAAAAGAAACAGUCGCUCAGGAUAUGUUCAACGUG have a reported apparent Kd of at least 30 nM?
Result string: not satisfied

Query string: Does UCAUAUUAAGGCGAGGAUAUACACGAUCCCACAUGAGGAUCACCCAUGUUUUGAUCAUGCCCUGUGUAGAAGGCGCACCUACGGGA have a reported apparent Kd of at least 30 nM?
Result string: satisfied
